Can you tell me PKB-kinase (spa) Assay 2, % inhibition of kinase activity for the items I'm about to list?
# target system: PKB (Homo sapiens, UniProt P31749)
# Construct: His; HA; made in house
# Sequence (P31749 whole entry, species assumed): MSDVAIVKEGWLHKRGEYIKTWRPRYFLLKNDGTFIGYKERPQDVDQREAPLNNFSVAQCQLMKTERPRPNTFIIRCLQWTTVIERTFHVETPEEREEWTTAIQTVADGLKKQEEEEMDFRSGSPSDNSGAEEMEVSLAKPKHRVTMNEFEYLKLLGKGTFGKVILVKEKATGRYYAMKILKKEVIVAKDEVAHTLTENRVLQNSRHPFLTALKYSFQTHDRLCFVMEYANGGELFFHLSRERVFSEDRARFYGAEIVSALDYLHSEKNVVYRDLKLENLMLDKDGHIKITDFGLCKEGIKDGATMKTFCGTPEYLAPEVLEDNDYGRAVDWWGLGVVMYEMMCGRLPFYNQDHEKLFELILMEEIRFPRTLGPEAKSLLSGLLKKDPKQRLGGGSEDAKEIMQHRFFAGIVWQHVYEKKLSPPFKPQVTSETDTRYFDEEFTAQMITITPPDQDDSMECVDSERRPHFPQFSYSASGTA
# assay info: PKB in vitro kinase activity assay (soluble His-HA-PKB / SPA bead screening)
# Format: biochemical
# test parameters: 1 μM compound concentration, Assay 2
Where no end group is shown, it is not given here. Side-chain parts run from the residue outwards. [ ]: non-standard residue; d: D form. The star is where a group is joined. X1 = 5‑aminoethylsulfonamide isoquinoline, O=S(=O)(NCCN*)c1cccc2cnccc12; hLeu = CC(C)CC[C@H](N)C(=O)O; Nle = CCCC[C@H](N)C(=O)O; Orn = NCCC[C@H](N)C(=O)O; Dab = NCC[C@H](N)C(=O)O; Nva = CCC[C@H](N)C(=O)O; Abu = CC[C@H](N)C(=O)O; Dap = NC[C@H](N)C(=O)O; βAla = NCCC(=O)O
Give bare numbers, in %.

Fill in: PKB-kinase (spa) Assay 2, % inhibition of kinase activity of 60020-92: Arg-Pro-Arg-Nle-Glu(bAla-5-aminoethylsulfonamide isoquinoline)-Orn-Hol (RPR[Nle]E([βAla-X1])[Orn][hLeu]) is ___
59

Fill in: PKB-kinase (spa) Assay 2, % inhibition of kinase activity of 60020-2: Arg-Pro-Arg-Dap-Glu(5-aminoethylsulfonamide isoquinoline)-Dab-Hol (RPR[Dap]E(X1)[Dab][hLeu]) is ___
48

Fill in: PKB-kinase (spa) Assay 2, % inhibition of kinase activity of 60020-33: Arg-Pro-Arg-Dap-Glu(Gly-5-aminoethylsulfonamide isoquinoline)-Dab-Phe (RPR[Dap]E([Gly-X1])[Dab]F) is ___
69

Fill in: PKB-kinase (spa) Assay 2, % inhibition of kinase activity of 60020-21: Arg-Pro-Arg-Abu-Glu(5-aminoethylsulfonamide isoquinoline)-Ala-Phe (RPR[Abu]E(X1)AF) is ___
6

Fill in: PKB-kinase (spa) Assay 2, % inhibition of kinase activity of 60020-53: Arg-Pro-Arg-Abu-Glu(Gly-5-aminoethylsulfonamide isoquinoline)-Ala-Phe (RPR[Abu]E([Gly-X1])AF) is ___
13

Would you be so kind as to report PKB-kinase (spa) Assay 2, % inhibition of kinase activity for each listed record?
1. 60020-9: Arg-Pro-Arg-Orn-Glu(5-aminoethylsulfonamide isoquinoline)-Dab-Phe (RPR[Orn]E(X1)[Dab]F)
2. 60020-78: Arg-Pro-Arg-Orn-Glu(bAla-5-aminoethylsulfonamide isoquinoline)-Ala-Hol (RPR[Orn]E([βAla-X1])A[hLeu])
3. 60020-75: Arg-Pro-Arg-Orn-Glu(bAla-5-aminoethylsulfonamide isoquinoline)-Orn-Phe (RPR[Orn]E([βAla-X1])[Orn]F)

1: 57; 2: 24; 3: 35

Would you be so kind as to report PKB-kinase (spa) Assay 2, % inhibition of kinase activity for each listed record?
1. 60020-28: Arg-Pro-Arg-Nle-Glu(5-aminoethylsulfonamide isoquinoline)-Orn-Hol (RPR[Nle]E(X1)[Orn][hLeu])
2. 60020-8: Arg-Pro-Arg-Dap-Glu(5-aminoethylsulfonamide isoquinoline)-Nva-Hol (RPR[Dap]E(X1)[Nva][hLeu])
3. 60020-37: Arg-Pro-Arg-Dap-Glu(Gly-5-aminoethylsulfonamide isoquinoline)-Ala-Phe (RPR[Dap]E([Gly-X1])AF)
4. 60020-20: Arg-Pro-Arg-Abu-Glu(5-aminoethylsulfonamide isoquinoline)-Orn-Hol (RPR[Abu]E(X1)[Orn][hLeu])
5. 60020-94: Arg-Pro-Arg-Nle-Glu(bAla-5-aminoethylsulfonamide isoquinoline)-Ala-Hol (RPR[Nle]E([βAla-X1])A[hLeu])
6. 60020-50: Arg-Pro-Arg-Abu-Glu(Gly-5-aminoethylsulfonamide isoquinoline)-Dab-Hol (RPR[Abu]E([Gly-X1])[Dab][hLeu])

1. 31
2. 0
3. 44
4. 15
5. 31
6. 54

Would you be so kind as to report PKB-kinase (spa) Assay 2, % inhibition of kinase activity for each listed record?
1. 60020-80: Arg-Pro-Arg-Orn-Glu(bAla-5-aminoethylsulfonamide isoquinoline)-Nva-Hol (RPR[Orn]E([βAla-X1])[Nva][hLeu])
2. 60020-45: Arg-Pro-Arg-Orn-Glu(Gly-5-aminoethylsulfonamide isoquinoline)-Ala-Phe (RPR[Orn]E([Gly-X1])AF)
3. 60020-88: Arg-Pro-Arg-Abu-Glu(bAla-5-aminoethylsulfonamide isoquinoline)-Nva-Hol (RPR[Abu]E([βAla-X1])[Nva][hLeu])
4. 60020-85: Arg-Pro-Arg-Abu-Glu(bAla-5-aminoethylsulfonamide isoquinoline)-Ala-Phe (RPR[Abu]E([βAla-X1])AF)
5. 60020-71: Arg-Pro-Arg-Dap-Glu(bAla-5-aminoethylsulfonamide isoquinoline)-Nva-Phe (RPR[Dap]E([βAla-X1])[Nva]F)
6. 60020-84: Arg-Pro-Arg-Abu-Glu(bAla-5-aminoethylsulfonamide isoquinoline)-Orn-Hol (RPR[Abu]E([βAla-X1])[Orn][hLeu])
7. 60020-18: Arg-Pro-Arg-Abu-Glu(5-aminoethylsulfonamide isoquinoline)-Dab-Hol (RPR[Abu]E(X1)[Dab][hLeu])
8. 60020-5: Arg-Pro-Arg-Dap-Glu(5-aminoethylsulfonamide isoquinoline)-Ala-Phe (RPR[Dap]E(X1)AF)

[35, 53, 31, "−2", 46, 51, 28, 26]

Would you be so kind as to report PKB-kinase (spa) Assay 2, % inhibition of kinase activity for each listed record?
1. 60020-12: Arg-Pro-Arg-Orn-Glu(5-aminoethylsulfonamide isoquinoline)-Orn-Hol (RPR[Orn]E(X1)[Orn][hLeu])
2. 60020-56: Arg-Pro-Arg-Abu-Glu(Gly-5-aminoethylsulfonamide isoquinoline)-Nva-Hol (RPR[Abu]E([Gly-X1])[Nva][hLeu])

1. 3
2. 47
